- Assayed target: Vascular endothelial growth factor receptor 3 (Homo sapiens)
- Sequence (P35916 whole entry): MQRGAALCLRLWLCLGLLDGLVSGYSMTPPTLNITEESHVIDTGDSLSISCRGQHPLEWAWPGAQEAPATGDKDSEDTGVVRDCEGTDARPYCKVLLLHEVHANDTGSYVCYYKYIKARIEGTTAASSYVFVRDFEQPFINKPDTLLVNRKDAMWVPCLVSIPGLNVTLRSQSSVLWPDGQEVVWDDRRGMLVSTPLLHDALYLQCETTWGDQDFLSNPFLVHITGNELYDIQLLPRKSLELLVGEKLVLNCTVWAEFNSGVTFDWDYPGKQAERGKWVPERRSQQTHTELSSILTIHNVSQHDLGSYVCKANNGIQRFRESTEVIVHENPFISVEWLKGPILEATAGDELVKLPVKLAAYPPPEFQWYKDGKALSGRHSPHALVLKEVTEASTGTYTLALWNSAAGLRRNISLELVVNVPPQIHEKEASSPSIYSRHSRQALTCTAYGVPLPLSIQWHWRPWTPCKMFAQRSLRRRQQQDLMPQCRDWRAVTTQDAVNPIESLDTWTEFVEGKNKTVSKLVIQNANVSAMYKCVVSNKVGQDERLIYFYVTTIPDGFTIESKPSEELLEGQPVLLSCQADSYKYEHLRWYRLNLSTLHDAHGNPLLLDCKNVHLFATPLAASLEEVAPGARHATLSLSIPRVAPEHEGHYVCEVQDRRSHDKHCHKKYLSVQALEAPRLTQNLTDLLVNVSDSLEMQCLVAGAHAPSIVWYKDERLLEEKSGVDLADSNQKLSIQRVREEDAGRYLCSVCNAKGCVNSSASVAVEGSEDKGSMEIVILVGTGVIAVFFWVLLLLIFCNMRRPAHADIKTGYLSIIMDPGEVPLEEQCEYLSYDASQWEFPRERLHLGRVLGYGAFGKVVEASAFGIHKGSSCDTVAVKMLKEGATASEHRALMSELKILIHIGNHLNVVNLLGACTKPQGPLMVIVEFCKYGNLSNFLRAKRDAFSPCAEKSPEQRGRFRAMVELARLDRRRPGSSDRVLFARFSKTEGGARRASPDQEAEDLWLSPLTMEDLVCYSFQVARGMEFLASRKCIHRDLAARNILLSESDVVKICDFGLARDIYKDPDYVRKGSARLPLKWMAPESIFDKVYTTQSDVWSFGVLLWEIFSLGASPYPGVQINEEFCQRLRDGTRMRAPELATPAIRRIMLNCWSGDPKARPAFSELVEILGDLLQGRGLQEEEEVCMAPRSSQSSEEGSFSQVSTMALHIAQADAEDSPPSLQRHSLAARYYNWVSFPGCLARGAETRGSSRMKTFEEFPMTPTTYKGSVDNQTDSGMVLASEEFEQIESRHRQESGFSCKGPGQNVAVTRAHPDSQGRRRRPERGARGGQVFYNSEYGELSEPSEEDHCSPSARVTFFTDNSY
Metric name: pIC50
One number for each entry, as −log10 of the molar value.

Documented pIC50 of `CN1CCC(COc2ccc3c(Nc4ccc(NC(=O)Nc5cccc(F)c5)cc4)ncnc3c2)CC1` : 8.02

###

- Assayed target: Vascular endothelial growth factor receptor 2 (Homo sapiens, UniProt P35968)
- Sequence (P35968 whole entry, the tested form may be a part): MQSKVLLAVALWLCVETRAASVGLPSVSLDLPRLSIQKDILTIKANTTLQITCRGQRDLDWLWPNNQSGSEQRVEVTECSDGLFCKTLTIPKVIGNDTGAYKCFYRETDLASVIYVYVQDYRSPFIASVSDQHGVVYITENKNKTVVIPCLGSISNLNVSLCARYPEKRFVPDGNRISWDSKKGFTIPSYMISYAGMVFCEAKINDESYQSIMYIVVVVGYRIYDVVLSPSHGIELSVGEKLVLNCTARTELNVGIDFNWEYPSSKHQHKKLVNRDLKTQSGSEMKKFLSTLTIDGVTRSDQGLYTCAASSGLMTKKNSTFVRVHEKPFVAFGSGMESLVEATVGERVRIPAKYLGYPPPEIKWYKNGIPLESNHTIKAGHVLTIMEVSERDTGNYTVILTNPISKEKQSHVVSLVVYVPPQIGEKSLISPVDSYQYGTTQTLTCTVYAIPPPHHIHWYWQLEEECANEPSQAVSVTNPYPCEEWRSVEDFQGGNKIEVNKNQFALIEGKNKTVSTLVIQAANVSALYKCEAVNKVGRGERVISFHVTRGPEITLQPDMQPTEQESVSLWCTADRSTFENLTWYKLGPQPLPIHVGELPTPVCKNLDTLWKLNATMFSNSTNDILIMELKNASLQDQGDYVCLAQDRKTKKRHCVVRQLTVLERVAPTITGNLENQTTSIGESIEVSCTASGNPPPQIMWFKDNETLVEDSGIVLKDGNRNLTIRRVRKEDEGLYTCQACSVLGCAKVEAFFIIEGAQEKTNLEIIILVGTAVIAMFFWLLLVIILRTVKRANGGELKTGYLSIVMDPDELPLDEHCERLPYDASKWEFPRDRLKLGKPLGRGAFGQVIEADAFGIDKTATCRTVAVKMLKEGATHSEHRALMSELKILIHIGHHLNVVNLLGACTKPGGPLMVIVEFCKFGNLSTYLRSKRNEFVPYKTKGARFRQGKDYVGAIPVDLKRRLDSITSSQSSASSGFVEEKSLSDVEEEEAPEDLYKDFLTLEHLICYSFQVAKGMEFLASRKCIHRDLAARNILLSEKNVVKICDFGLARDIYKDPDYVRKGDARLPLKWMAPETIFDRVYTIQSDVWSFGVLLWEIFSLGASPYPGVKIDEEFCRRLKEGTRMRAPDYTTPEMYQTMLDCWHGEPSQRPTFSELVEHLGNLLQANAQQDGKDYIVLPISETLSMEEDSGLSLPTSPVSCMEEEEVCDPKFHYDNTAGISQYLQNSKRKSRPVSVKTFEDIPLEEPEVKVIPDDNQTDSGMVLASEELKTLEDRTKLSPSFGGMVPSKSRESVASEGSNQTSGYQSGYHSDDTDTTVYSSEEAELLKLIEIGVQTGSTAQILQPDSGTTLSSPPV
- Method: Inhibition of human GST-tagged VEGFR2 intracellular domain using biotin-aminohexyl-EEEEYFELVAKKKK-NH2 as substrate after 30 mins by HTRF assay
Metric name: IC50 (nM)
Give bare numbers, in nM.

Documented IC50 of `CN1CCC(COc2ccc3c(Nc4ccc(NC(=O)Nc5cccc(F)c5)cc4)ncnc3c2)CC1` : 5.5

###

- Method: Lipophilicity, log P of the compound
- Format: physicochemical
- Measurement context: octanol/water
Metric name: logP

Documented logP of CNC(=O)c1cc(Oc2ccc(NC(=O)Nc3ccc(Cl)c(C(F)(F)F)c3)cc2)ccn1 [SORAFENIB] : 5

###

- Assayed target: Receptor tyrosine-protein kinase erbB-2 (Homo sapiens, UniProt P04626)
- Sequence (P04626 whole entry): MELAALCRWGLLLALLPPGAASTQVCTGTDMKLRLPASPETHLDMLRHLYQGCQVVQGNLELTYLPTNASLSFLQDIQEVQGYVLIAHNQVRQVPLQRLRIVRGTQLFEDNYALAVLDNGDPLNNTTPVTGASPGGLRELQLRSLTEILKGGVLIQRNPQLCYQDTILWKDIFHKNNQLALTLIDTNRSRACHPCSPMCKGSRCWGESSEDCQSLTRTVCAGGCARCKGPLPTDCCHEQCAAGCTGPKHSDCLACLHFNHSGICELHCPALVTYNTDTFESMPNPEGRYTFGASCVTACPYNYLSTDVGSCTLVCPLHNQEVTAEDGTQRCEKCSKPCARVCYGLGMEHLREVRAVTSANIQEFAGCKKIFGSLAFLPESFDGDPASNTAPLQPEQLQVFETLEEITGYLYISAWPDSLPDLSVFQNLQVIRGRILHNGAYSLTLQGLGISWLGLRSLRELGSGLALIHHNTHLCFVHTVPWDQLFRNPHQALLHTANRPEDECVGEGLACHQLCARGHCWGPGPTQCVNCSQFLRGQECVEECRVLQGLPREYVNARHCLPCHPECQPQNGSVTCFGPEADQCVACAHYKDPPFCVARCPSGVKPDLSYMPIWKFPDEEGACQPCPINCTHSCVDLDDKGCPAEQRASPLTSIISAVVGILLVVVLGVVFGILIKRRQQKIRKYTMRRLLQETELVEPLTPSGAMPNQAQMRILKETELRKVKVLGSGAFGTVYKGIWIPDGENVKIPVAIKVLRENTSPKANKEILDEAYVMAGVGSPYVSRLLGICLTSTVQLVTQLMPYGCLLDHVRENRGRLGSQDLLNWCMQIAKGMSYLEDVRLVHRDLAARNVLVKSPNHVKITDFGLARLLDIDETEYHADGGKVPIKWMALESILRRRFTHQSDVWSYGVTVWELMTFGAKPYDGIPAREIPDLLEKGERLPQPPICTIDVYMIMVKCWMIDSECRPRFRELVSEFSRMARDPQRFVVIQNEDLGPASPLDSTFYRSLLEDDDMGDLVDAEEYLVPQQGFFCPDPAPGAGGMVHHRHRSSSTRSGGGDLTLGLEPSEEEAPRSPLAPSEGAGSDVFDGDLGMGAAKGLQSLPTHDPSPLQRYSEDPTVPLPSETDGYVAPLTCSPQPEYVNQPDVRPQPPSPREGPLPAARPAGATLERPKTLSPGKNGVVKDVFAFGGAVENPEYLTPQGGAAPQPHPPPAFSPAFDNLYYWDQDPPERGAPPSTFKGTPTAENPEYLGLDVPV
Metric name: IC50

`CN1CCC(COc2ccc3c(Nc4ccc(NC(=O)Nc5cccc(F)c5)cc4)ncnc3c2)CC1` tested on Receptor tyrosine-protein kinase erbB-2 (Homo sapiens, UniProt P04626) gave IC50: > 10 µM

###

Exercise: for every item that follows, state its recorded pIC50.
- System: HUVEC
- Method: Antiproliferative activity against VEGF-stimulated HUVEC after 48 hrs by sulforhodamine B assay
- Measurement context: Homo sapiens
One number for each entry, as −log10 of the molar value.

Here are 2 compounds together with their reported answers.
Chem smiles	pIC50
CCNC(=O)Nc1ccc(Nc2ncnc3cc(OCC4CCN(C)CC4)ccc23)cc1	6.23
CN1CCC(COc2ccc3c(Nc4ccc(NC(=O)Nc5cccc(F)c5)cc4)ncnc3c2)CC1	7.28

Fill in pIC50 for each of the 5 compounds listed.
1. Cc1ccc(NC(=O)Nc2ccc(Nc3ncnc4cc(OCC5CCN(C)CC5)ccc34)cc2)cc1Br
2. CN1CCC(COc2ccc3c(Nc4ccc(CC(=O)Nc5ccc(F)c(F)c5)cc4)ncnc3c2)CC1
3. CN1CCC(COc2ccc3c(Nc4ccc(NC(=O)Nc5cccc(F)c5)c(F)c4)ncnc3c2)CC1
4. CN1CCC(COc2ccc3c(Nc4ccc(CC(=O)Nc5cccc(F)c5)cc4)ncnc3c2)CC1
5. CN1CCC(COc2ccc3c(Nc4ccc(NC(=O)NC5CC5)cc4)ncnc3c2)CC1

Outgoing:
1. 6.71
2. 6.51
3. 7.17
4. 6.63
5. 6.49

###

- System: HUVEC
- Method: Antiproliferative activity against VEGF-stimulated HUVEC after 48 hrs by sulforhodamine B assay
- Measurement context: Homo sapiens
Metric name: IC50 (µM)
Give bare numbers, in µM.

Chem smiles	Assayed target	Units text	IC50
CN1CCC(COc2ccc3c(Nc4ccc(NC(=O)Nc5ccc(Cl)c(C(F)(F)F)c5)cc4)ncnc3c2)CC1	HUVEC	µM	0.092

Fill in IC50 for each of the 3 compounds listed.
1. COc1cc2c(Nc3ccc(Br)cc3F)ncnc2cc1OCC1CCN(C)CC1
2. COc1cc2c(Nc3ccc(NC(=O)Nc4cccc(F)c4)c(F)c3)ncnc2cc1OCC1CCN(C)CC1
3. CN1CCC(COc2ccc3c(Nc4ccc(CC(=O)Nc5ccc(Cl)c(C(F)(F)F)c5)cc4)ncnc3c2)CC1

Outgoing:
1. 0.187
2. 0.185
3. 0.258

###

- Tested on: HUVEC
- Method: Antiproliferative activity against VEGF-stimulated HUVEC after 48 hrs by sulforhodamine B assay
- Measurement context: Homo sapiens
Metric name: IC50 (nM)
One number for each entry, in nM.

Here are 2 compounds together with their reported answers.
Chem smiles	Units text	IC50
CN1CCC(COc2ccc3c(Nc4ccc(NC(=O)Nc5ccc(F)c(F)c5)cc4)ncnc3c2)CC1	nM	89
CN1CCC(COc2ccc3c(Nc4ccc(NC(=O)Nc5cccc(F)c5)c(Cl)c4)ncnc3c2)CC1	nM	132

Fill in IC50 for each of the 2 compounds listed.
1. CN1CCC(COc2ccc3c(Nc4ccc(NC(=O)Nc5ccc(Br)cc5F)cc4)ncnc3c2)CC1
2. COc1cc2c(Nc3ccc(NC(=O)Nc4cccc(F)c4)cc3)ncnc2cc1OCC1CCN(C)CC1

Outgoing:
1: 233; 2: 179

FYI, the data here is from ChEMBL document CHEMBL1933000.
